These measurements were taken from patent US20230143751A1.

Test system: NCI-H358 cells
assay name: Cell proliferation activity of NCI-H358 by CellTiter-Glo reagent
Assay type: cell-based
run conditions: Homo sapiens, NCI-H358, test 4, method of test 3; read-out: IC50 value of cell proliferation inhibitory activity of NCI-H358
Answer each item with its documented IC50.

Entry C=CC(=[18O])N1C[C@H](C)N(c2nc(=O)n(-c3c(C)ccnc3C(C)C)c3nc(-c4c(F)cccc4C=C)c(Cl)cc23)[C@@H](C)C1 ; IC50 = < 50 nM

Value of IC50 reported for the compound [2H]C([2H])=Cc1cccc(F)c1-c1nc2c(cc1Cl)c(N1CCN(C(=[18O])C=C)C[C@@H]1C)nc(=O)n2-c1c(C)ccnc1C(C)C is < 50 nM

Lab note: measured IC50 of C=CC(=[18O])N1C[C@H](C)N(c2nc(=O)n(-c3c(C)ccnc3C(C)C)c3nc(-c4ccccc4C=C)c(Cl)cc23)[C@@H](C)C1 was < 50 nM

Just so you know, measured IC50 for C=CC(=[18O])N1CCN(c2nc(=O)n(-c3c(CC)ccnc3C(C)C)c3nc(-c4c(F)cccc4C=C)c(Cl)cc23)[C@@H](C)C1 came out at < 50 nM

Input [2H]C([2H])=Cc1cccc(F)c1-c1nc2c(cc1Cl)c(N1CCN(C(=[18O])C=C)C[C@@H]1C)nc(=O)n2-c1c(CC)ccnc1C(C)C [Compound 3-12MIS] . Output IC50: < 50 nM

Lab note: measured IC50 of [2H]C([2H])=Cc1cccc(F)c1-c1nc2c(cc1Cl)c(N1[C@@H](C)CN(C(=[18O])C=C)C[C@@H]1C)nc(=O)n2-c1c(C)ccnc1C(C)C [Compound 3-11MIS] was < 50 nM
